These measurements were taken from the RNAGym collection of RNA variant scans (doi:10.7554/elife.80360).

B1: Hairpin Ribozyme (parent)
chain: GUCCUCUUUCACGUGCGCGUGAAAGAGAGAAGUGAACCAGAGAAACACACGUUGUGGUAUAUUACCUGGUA

- Variants of: B1
- assay_notes: self-cleavage, relative activity (ratio to wild type); higher = more cleavage; co-transcriptional
measured_property: self-cleavage
Give your answer as a number; write no unit.

// self-cleavage value for G42C A43U : 0.106

// self-cleavage value for G51C U52C : 1.16

// self-cleavage value for G56A C66U : 0.296

// self-cleavage value for C37G G42C : 0.152

// self-cleavage value for U8C A71G : 0.974

// self-cleavage value for A30G U53A : 0.0621

// self-cleavage value for A39U U60A : 0.345

// self-cleavage value for A28U A31C : 0.251

// self-cleavage value for G25C A44U : 0.112

// self-cleavage value for C6A U63A : 0.144

// self-cleavage value for C18U G32C : 0.142

// self-cleavage value for C4U A43C : 0.128

// self-cleavage value for A35G G69C : 0.204

// self-cleavage value for A35U U60C : 0.559

// self-cleavage value for G1A U62A : 0.192

// self-cleavage value for A44C A61G : 0.115

// self-cleavage value for U9C U67A : 0.174

// self-cleavage value for G15U A59U : 0.0728

// self-cleavage value for C6A G68C : 0.13

// self-cleavage value for G29U A36U : 0.104

// self-cleavage value for C3A G34U : 1.34

// self-cleavage value for G34A U63G : 0.157
